Can you tell me DSF max dTma for the items I'm about to list?
Target: SARS-CoV-2 NSP3 Mac1 (Severe acute respiratory syndrome coronavirus 2, UniProt P0DTD1)
Parameters: contains a conserved macrodomain enzyme (Mac1); Differential scanning fluorimetry of Mac1, maximum thermal upshift
Details: maximum shift over tested concentrations; binder
One number for each entry, in °C.

Q. Recorded DSF max dTma for CC1(C)CCC(C(=O)O)CN1C(=O)c1ncnc2[nH]ccc12 (centres unmarked) , please?
A. 0.62

Q. Recorded DSF max dTma for Nc1ncnc(N2CCCC(CCC(=O)O)C2)c1Cl (centres unmarked) , please?
A. 0.34

Q. Recorded DSF max dTma for "O=C(Nc1ccc(C(=O)N[C@H]2c3ccccc3CC[C@H]2C(=O)O)cc1)NC1CC1" , please?
A. 4.92

Give DSF max dTma for each listed item.
1. O=C(O)C1(F)CN(c2cc(Nc3ccccc3)ncn2)CC12CCC2 (centres unmarked)
2. NC(=O)Nc1ccc(C(=O)NC2c3cccc(O)c3CC2C(=O)O)cc1 (centres unmarked)
3. O=C(Nc1ccc(C(=O)NC2c3ccccc3CC2C(=O)O)cc1)NC1CC1 (centres unmarked)
4. OCc1cn(C2CCCN(c3ncnc4[nH]ccc34)C2)nn1 (centres unmarked)

A.
[1.36, 6, 3.66, 0.32]

Q. Recorded DSF max dTma for CS(=O)(=O)C1CCCN(c2ncnc3[nH]c4cc(F)ccc4c23)C1 (centres unmarked) , please?
A. 0.8

====

Can you tell me Refined occupancy for the items I'm about to list?
Target: SARS-CoV-2 NSP3 Mac1 (Severe acute respiratory syndrome coronavirus 2, UniProt P0DTD1)
Type: binding
Details: ligand occupancy after refinement (phenix.refine); crystal soaking of Mac1

Give Refined occupancy for each listed item.
1. Cc1oc(CNc2ncnc3[nH]c4ccccc4c23)cc1C(=O)O
2. COC(=O)C1(CO)CCN(c2ncnc3[nH]c4cc(F)ccc4c23)C1 (stereo not drawn)
3. Nc1ccc(C(=O)OC2c3ccccc3CC2C(=O)O)c(O)c1 (stereo not drawn)
4. O=C(NCc1c(C(=O)O)[nH]c2ccccc12)c1ccc2[nH]c(O)nc2c1
5. OCc1cn(C2CCCN(c3ncnc4[nH]ccc34)C2)nn1 (stereo not drawn)
6. O=C(Nc1ccc(C(=O)N2CC(C(=O)O)Cc3ccccc32)cc1)NC1CC1 (stereo not drawn)

A.
[18, 20, 74, 10, 10, 12]

Give Refined occupancy for each listed item.
1. O=C(Nc1ccc(C(=O)N[C@H]2c3cccc(O)c3C[C@H]2C(=O)O)cc1)NC1CC1
2. Cc1nnc2n1CC(C(=O)O)N(C(=O)c1ccc(NC(=O)NC3CC3)cc1)C2 (stereo not drawn)
3. Cn1ncc2c(=O)[nH]c(CCC(=O)N3CC=C(C(=O)O)C3)nc21

A.
[54, 80, 34]

====

Molecular target: SARS-CoV-2 NSP3 Mac1 (Severe acute respiratory syndrome coronavirus 2)
Assay type: binding
Parameters: contains a conserved macrodomain enzyme (Mac1)
Details: DSF dose responsiveness, 1 µM nsp3 mac1; adj p given
Quantity kind: Spearman est (compound concentration vs apparent Tm)
Answers are plain numbers.

Q. Recorded Spearman est (compound concentration vs apparent Tm) for O=C(c1cccc(O)c1)N1CCC(Nc2ccccc2)C1 (stereo not drawn) [ZINC000182324508] , please?
A. 0.13

Q. Recorded Spearman est (compound concentration vs apparent Tm) for O=C(O)CC1CN(c2ncnc3[nH]ccc23)CCO1 (stereo not drawn) [Z9572] , please?
A. 0.62

Q. Recorded Spearman est (compound concentration vs apparent Tm) for Nc1ncnc2c1ncn2Cc1ccc(Cl)cn1 [ZINC000559260078] , please?
A. 0.88

Q. Recorded Spearman est (compound concentration vs apparent Tm) for Clc1cc2c(N3CCCC(c4nnc[nH]4)C3)ncnc2[nH]1 (stereo not drawn) [ZINC001187497156] , please?
A. 0.32

Q. Recorded Spearman est (compound concentration vs apparent Tm) for C[C@H]1CN(C(=O)c2cccc3[nH]c(=O)oc23)C[C@@H]1C(=O)O [ZINC000833624464] , please?
A. −0.44

Q. Recorded Spearman est (compound concentration vs apparent Tm) for Cc1oc(=O)oc1CSc1ncnc2[nH]cnc12 [ZINC000222377450] , please?
A. 0.54

Give Spearman est (compound concentration vs apparent Tm) for each listed item.
1. Nc1ncnc2c1ncn2Cc1cc(-c2ccco2)on1 [ZINC000681764827]
2. O=C(O)CC1Cc2ccccc2N1C(=O)c1ccc(NC(=O)NC2CC2)cc1 (stereo not drawn) [8539_0039]
3. O=C(Nc1ccc(C(=O)NC2c3ccccc3CC2C(=O)O)cc1)NC1CC1 (stereo not drawn) [8539_0029]

A.
[0.38, 0.09, 0.73]
